molecular target: T1, Human eIF4E (aa 28-217) with a C-terminal His tag (human, UniProt P06730 28-217); assay: TR-FRET competition vs biotin-4G2 peptide on HH-eIF4E;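 further: peptide inhibitors measured in sodium phosphate buffer at pH 6.5 containing KCl, DTT, NP40 and gammaglobulin, with a 20 min incubation at room temperature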
T1 construct: also called HH-eIF4E; eukaryotic initiation factor 4E
T1 sequence (P06730 other isoform, or with tags, fused parts or gaps limits assumed): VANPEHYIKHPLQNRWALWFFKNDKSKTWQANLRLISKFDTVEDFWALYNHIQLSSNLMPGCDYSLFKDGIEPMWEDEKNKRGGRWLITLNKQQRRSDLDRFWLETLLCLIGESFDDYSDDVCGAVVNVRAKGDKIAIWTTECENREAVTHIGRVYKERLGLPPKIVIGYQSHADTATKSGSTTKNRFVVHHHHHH
Square brackets hold non-standard residues; d marks the D form.
Listing: log10(IC50) of selected binders
Base-10 log of IC50, unit µM.

Below are worked cases with known answers.
Ac-KQYDREFLLDFQFMP[dA]-NH2 [peptide of SEQ ID NO: 64]; 0.94
YDRQFLLDFQFL (N-terminal Ac; Nle at 12; C-terminal NH2) [peptide of SEQ ID NO: 71]; 1.04
Ac-KQYDREFLLDFQF-NH2 [peptide of SEQ ID NO: 55]; 1.16
Ac-KQYDREFLLAFQFMPA-NH2 [peptide of SEQ ID NO: 59]; 0.15
YNRQFLLDFQFL (N-terminal Ac; Nle at 12; C-terminal NH2) [peptide of SEQ ID NO: 75]; 1.04
Ac-QYDREFLLDFQFMPA-NH2 [peptide of SEQ ID NO: 81]; 0.94

Now turn to the next binder.
Query: I would be grateful if you could share the reported log10(IC50) for Ac-KQYDREFLLDFQFMPA-NH2 [peptide of SEQ ID NO: 52] .
Result: 1.02
